Molecular target: hERG (KCNH2) (Homo sapiens)
Sequence (Q12809 whole entry): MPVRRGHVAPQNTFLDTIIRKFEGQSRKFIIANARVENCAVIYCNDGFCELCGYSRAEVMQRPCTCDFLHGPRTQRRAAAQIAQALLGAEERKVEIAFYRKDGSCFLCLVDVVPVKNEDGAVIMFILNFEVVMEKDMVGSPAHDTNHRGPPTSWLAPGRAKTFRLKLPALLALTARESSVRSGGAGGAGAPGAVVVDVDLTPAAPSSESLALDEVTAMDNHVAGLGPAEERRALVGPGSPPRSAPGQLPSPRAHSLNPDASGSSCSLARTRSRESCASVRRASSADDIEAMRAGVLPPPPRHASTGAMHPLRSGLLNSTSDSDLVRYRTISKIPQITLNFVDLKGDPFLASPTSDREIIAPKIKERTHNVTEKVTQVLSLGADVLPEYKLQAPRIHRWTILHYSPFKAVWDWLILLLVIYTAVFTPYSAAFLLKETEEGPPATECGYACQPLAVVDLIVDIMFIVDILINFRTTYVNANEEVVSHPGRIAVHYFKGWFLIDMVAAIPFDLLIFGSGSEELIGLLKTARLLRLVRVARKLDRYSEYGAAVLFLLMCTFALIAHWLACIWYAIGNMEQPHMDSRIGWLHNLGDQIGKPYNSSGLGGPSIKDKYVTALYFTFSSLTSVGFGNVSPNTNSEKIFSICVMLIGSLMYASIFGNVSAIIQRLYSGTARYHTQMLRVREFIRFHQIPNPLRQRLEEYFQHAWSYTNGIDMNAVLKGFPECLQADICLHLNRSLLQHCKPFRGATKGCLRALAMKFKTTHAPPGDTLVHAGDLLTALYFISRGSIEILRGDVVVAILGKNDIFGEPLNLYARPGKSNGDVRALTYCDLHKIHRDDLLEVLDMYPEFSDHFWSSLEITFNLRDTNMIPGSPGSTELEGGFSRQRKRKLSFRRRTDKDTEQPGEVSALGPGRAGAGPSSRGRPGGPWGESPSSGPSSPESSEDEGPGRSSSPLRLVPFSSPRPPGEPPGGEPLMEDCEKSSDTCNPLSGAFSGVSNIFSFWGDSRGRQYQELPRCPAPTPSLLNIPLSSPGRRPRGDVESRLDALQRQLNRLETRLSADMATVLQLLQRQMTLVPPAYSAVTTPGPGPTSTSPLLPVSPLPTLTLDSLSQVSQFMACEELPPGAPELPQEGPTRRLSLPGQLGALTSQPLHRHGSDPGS
Experiment: Inhibition of human Erg at 10 uM
property.measured: inhibition at 10 µM

{"columns": ["mol", "target.entity", "result"],
 "data": [
  ["Cc1csc(NC(=O)CSc2ccc(-c3ccccc3)nn2)n1", "hERG (KCNH2) (Homo sapiens)", "> 50%"]
]}

====

Test: Metabolic stability of the compound in rat plasma assessed as compound remaining after 1 hr
Type: ADME, cell-free
Settings: read-out: Stability

{"columns": ["mol", "remaining at 1 h / %"],
 "data": [
  ["Cc1csc(N(C(=O)CSc2ccc(-c3ccccc3)nn2)C2CC2)n1", 6]
]}
